src = PubChem BioAssay AID651821

Experimental details: binders of r(CAG) RNA repeats, primary screen, biochemical, fluorescence (AID 651821);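 also: 0% = DMSO alone and 100% = 100 µM mitoxantrone as full dye displacement; higher means more dye released from RNA so lower well fluorescence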
Condition set: r(CAG) RNA repeat, TO-PRO-1 dye displacement fluorescence; at 3 µM; hits give high values
The whole screen tested about 370,000 compounds, of which about 4,700 (1.3%) were called active. This excerpt belongs to a sample that is enriched for actives.
inhibition by entry:
Report the value in % with no unit label.

Some solved cases for reference:
[[record]]
compound = "COc1ccc(CCNC(=O)CSc2nc3c([nH]2)c(=O)n(C)c(=O)n3C)cc1"
assay_result = 1.31

[[record]]
compound = "O=S1(=O)c2c(cccc2N2CCSCC2)Oc2ccccc2CN1Cc1cn(Cc2ccc(F)cc2)nn1"
assay_result = 8.25

[[record]]
compound = "CCOc1ccccc1Nc1nnc(SCc2ccc(C(=O)OC)o2)s1"
assay_result = 0.96

[[record]]
compound = "CN(CCc1ccccc1)C(=O)Cn1nc(-c2ccccc2)ccc1=O"
assay_result = -2.33


Now turn to the next compound.
Challenge: # inhibition lookup, item `COC(=O)Cc1cc(=O)n(-c2nc3ccccc3s2)[nH]1`
Response given: 60.6
